test system: A. fumigatus AF294; assay: EUCAST broth microdilution growth inhibition (OD 530 nm, 384-well); assay type: cell-based; conditions: Aspergillus fumigatus, strain AF294 (ITC-susceptible), 48 h
Each entry below carries its recorded IC90.

COMPOUND	EXPERIMENTAL_TARGET	IC90
CC[C@H](C)C[C@H](C)CCCCCCCCC(=O)N[C@H]1C[C@@H](O)[C@@H](NCCN)NC(=O)[C@@H]2[C@@H](O)CCN2C(=O)[C@H]([C@H](O)CCN)NC(=O)[C@H]([C@H](O)[C@@H](O)c2ccc(O)cc2)NC(=O)[C@@H]2C[C@@H](O)CN2C(=O)[C@H]([C@@H](C)O)NC1=O [Caspofungin, caspofungin]	A. fumigatus AF294	> 1 µg/mL
CC[C@@H]([C@H](C)O)n1ncn(-c2ccc(N3CCN(c4ccc(OC[C@@H]5CO[C@@](Cn6cncn6)(c6ccc(F)cc6F)C5)cc4)CC3)cc2)c1=O [Posaconazole, posaconazole]	A. fumigatus AF294	0.011 µg/mL
C[C@@H]1[C@H](O)[C@@H](C)/C=C/C=C/C=C/C=C/C=C/C=C/C=C/[C@H](O[C@@H]2O[C@H](C)[C@@H](O)[C@H](N)[C@@H]2O)C[C@@H]2O[C@](O)(C[C@@H](O)C[C@@H](O)[C@H](O)CC[C@@H](O)C[C@@H](O)CC(=O)O[C@H]1C)C[C@H](O)[C@H]2C(=O)O [Amphotericin B, amphotericin B]	A. fumigatus AF294	0.79 µg/mL
Cc1cc(N2CCN(c3ccc(C(=O)N[C@H]4CCCC[C@@H]4O)cc3)CC2)ccc1OC[C@@H]1CO[C@@](Cn2cncn2)(c2ccc(F)cc2F)C1 [PC1244]	A. fumigatus AF294	0.0041 µg/mL
C[C@@H](c1ncncc1F)[C@](O)(Cn1cncn1)c1ccc(F)cc1F [Voriconazole, voriconazole]	A. fumigatus AF294	0.27 µg/mL
CCC(C)n1ncn(-c2ccc(N3CCN(c4ccc(OCC5COC(Cn6cncn6)(c6ccc(Cl)cc6Cl)O5)cc4)CC3)cc2)c1=O (stereo not drawn) [Itraconazole, itraconazole]	A. fumigatus AF294	0.052 µg/mL

----------
assay: in vivo; details: mouse
QUANTITY_MEASURED: concentration at 8 h

> print(dat)
                         structure.notation          reported
1  Cc1cc(N2CCN(c3ccc(C(=O)N[C@H]4CCCC[C@@H]4O)cc3)CC2)ccc1OC[C@@H]1CO[C@@](Cn2cncn2)(c2ccc(F)cc2F)C1  249 to 339 ng/mL

----------
assay: in vivo; conditions: mouse
QUANTITY_MEASURED: concentration at 2 h

> print(dat)
                         structure.notation     quantity.measured          reported
1  Cc1cc(N2CCN(c3ccc(C(=O)N[C@H]4CCCC[C@@H]4O)cc3)CC2)ccc1OC[C@@H]1CO[C@@](Cn2cncn2)(c2ccc(F)cc2F)C1  concentration at 2 h  111 to 303 ng/mL

----------
Test system: A. fumigatus AF72
Assay: EUCAST broth microdilution growth inhibition (OD 530 nm, 384-well)
Assay type: cell-based
Details: Aspergillus fumigatus, strain AF72 (ITC-resistant), 48 h
Procedure: The antifungal activities of the test compounds against A. fumigatus strains (itraconazole [ITC]-susceptible strains NCPF2010, AF294, and AF293; ITC-resistant strains AF72 and AF91) were calculated from growth curves generated by spectrophotometric analysis and compared to the activities against positive and negative controls.
Each entry below carries its recorded IC50.

COMPOUND	EXPERIMENTAL_TARGET	IC50, µg/mL
CCC(C)n1ncn(-c2ccc(N3CCN(c4ccc(OCC5COC(Cn6cncn6)(c6ccc(Cl)cc6Cl)O5)cc4)CC3)cc2)c1=O (stereo not drawn)	A. fumigatus AF72	0.31
C[C@@H]1[C@H](O)[C@@H](C)/C=C/C=C/C=C/C=C/C=C/C=C/C=C/[C@H](O[C@@H]2O[C@H](C)[C@@H](O)[C@H](N)[C@@H]2O)C[C@@H]2O[C@](O)(C[C@@H](O)C[C@@H](O)[C@H](O)CC[C@@H](O)C[C@@H](O)CC(=O)O[C@H]1C)C[C@H](O)[C@H]2C(=O)O	A. fumigatus AF72	0.12
Cc1cc(N2CCN(c3ccc(C(=O)N[C@H]4CCCC[C@@H]4O)cc3)CC2)ccc1OC[C@@H]1CO[C@@](Cn2cncn2)(c2ccc(F)cc2F)C1	A. fumigatus AF72	0.0024
CC[C@H](C)C[C@H](C)CCCCCCCCC(=O)N[C@H]1C[C@@H](O)[C@@H](NCCN)NC(=O)[C@@H]2[C@@H](O)CCN2C(=O)[C@H]([C@H](O)CCN)NC(=O)[C@H]([C@H](O)[C@@H](O)c2ccc(O)cc2)NC(=O)[C@@H]2C[C@@H](O)CN2C(=O)[C@H]([C@@H](C)O)NC1=O	A. fumigatus AF72	0.065
C[C@@H](c1ncncc1F)[C@](O)(Cn1cncn1)c1ccc(F)cc1F	A. fumigatus AF72	0.025
CC[C@@H]([C@H](C)O)n1ncn(-c2ccc(N3CCN(c4ccc(OC[C@@H]5CO[C@@](Cn6cncn6)(c6ccc(F)cc6F)C5)cc4)CC3)cc2)c1=O	A. fumigatus AF72	0.042
